Where do these numbers come from? They come from patent US11208396B2.

system: human muscarinic M4 receptor (Homo sapiens, UniProt P08173)
Construct: expressed in transfected cells
Sequence (P08173 1-479): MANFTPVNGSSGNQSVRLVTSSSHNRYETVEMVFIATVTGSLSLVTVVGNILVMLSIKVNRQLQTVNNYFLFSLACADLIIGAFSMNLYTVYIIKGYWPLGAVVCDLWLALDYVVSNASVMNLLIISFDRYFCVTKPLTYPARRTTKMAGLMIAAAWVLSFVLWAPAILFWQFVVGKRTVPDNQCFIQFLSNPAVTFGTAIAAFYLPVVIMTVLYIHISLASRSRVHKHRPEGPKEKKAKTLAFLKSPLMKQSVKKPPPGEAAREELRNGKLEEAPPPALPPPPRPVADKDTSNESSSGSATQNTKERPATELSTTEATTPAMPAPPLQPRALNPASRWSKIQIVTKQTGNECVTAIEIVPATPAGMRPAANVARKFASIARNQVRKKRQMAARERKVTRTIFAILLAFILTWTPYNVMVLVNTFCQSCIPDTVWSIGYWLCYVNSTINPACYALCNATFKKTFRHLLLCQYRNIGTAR
protocol details: Alphascreen Surefire phospho-ERK1/2 functional assay, M4
Assay type: cell-based
condition info: CHO cells stably expressing human M4; Emax compared with ACh
measure name: % Emax cf. ACh, M4 (%)

[P] CCOC(=O)N1CCCC(N2CCC(C(C)=NOC(C)C)CC2)CC1 (single isomer, unassigned) [1-9 Isomer 2 (racemic)]
[Q] CCOC(=O)N1CCC[C@H](N2CCC(C(C)=NOC)CC2)CC1 (single isomer, unassigned) [(S)-1-1 Isomer 1]
Query: Parameter metric = % Emax cf. ACh, M4. Return the lower-valued option from P and Q . The response must carry the label of the picked entry.
Response: Q
(Q: 31%, P: 81%)

###

system: UniProt P08172
Sequence (P08172 1-466): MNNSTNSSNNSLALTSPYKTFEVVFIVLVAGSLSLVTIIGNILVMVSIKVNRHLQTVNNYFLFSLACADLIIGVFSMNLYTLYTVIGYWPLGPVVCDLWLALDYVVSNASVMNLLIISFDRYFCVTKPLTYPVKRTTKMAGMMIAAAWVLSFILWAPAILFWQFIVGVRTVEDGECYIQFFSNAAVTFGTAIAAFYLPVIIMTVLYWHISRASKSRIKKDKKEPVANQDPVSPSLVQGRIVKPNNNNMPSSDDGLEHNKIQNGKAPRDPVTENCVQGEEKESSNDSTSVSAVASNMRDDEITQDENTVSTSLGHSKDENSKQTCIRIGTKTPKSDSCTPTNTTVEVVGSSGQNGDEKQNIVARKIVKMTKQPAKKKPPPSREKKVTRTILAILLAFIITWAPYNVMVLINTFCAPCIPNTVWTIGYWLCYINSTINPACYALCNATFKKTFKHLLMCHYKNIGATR
protocol details: Alphascreen Surefire phospho-ERK1/2 functional assay, M2
Assay type: cell-based
condition info: CHO cells stably expressing human M2; Emax compared with ACh
measure name: % Emax cf. ACh, M2 (%)

See these solved cases before continuing.
compound	measure name	test value
CCOC(=O)N1CCCC(N2CCC(C(CC)=NOC(C)C)CC2)CC1 (single isomer, unassigned) [1-12 Isomer 2 (racemic)]	% Emax cf. ACh, M2	2
CCOC(=O)N1CCCC(N2CCC(C(=NOC)C(C)C)CC2)CC1 (single isomer, unassigned) [1-4 Isomer 2 (racemic)]	% Emax cf. ACh, M2	7
CCOC(=O)N1CCCC(N2CCC(C(=NOC)C(C)C)CC2)CC1 (single isomer, unassigned) [1-4 Isomer 1 (racemic)]	% Emax cf. ACh, M2	24

[1] CCOC(=O)N1CCC[C@H](N2CCC(C(CC)=NOC)CC2)CC1 (single isomer, unassigned) [(S)-1-2 Isomer 2]
[2] CCOC(=O)N1CCC[C@H](N2CCC(C(CC)=NOC)CC2)CC1 (single isomer, unassigned) [(S)-1-2 Isomer 1]
Query: Returns: the argument ( 1 or 2 ) having the larger % Emax cf. ACh, M2. State the label of the item chosen.
Response: 2
